- measured-on: T1, NT-4 (neurotrophin-4) (Homo sapiens, UniProt P34130 P34130:81-210)
- T1 sequence: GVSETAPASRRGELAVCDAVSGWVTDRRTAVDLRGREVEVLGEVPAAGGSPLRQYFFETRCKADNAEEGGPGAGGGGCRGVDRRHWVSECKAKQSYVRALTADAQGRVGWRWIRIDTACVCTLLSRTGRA
- test-method-notes: SPR; scarcely bound
- condition-details: tags: R&D Systems; chain copies: 2
metric: binding result

GGGUCCUGAUGUCAAGUUUCCGUCUUGAUGUCUGUUACCC (ssRNA, 2'-F C/U, dA, 2'-OH G) [SEQ ID NO: 104]	no binding
GGGUCCUGCUGCGUAGUUUCCGUCUGCGUAGCUGUUACCC (ssRNA, 2'-F C/U, dA, 2'-OH G) [SEQ ID NO: 106]	no binding
GGGUCCUGCCGCGUAGUUUCCGUCUGCGUGGCUGUUACCC (ssRNA, 2'-F C/U, dA, 2'-OH G) [SEQ ID NO: 110]	no binding
